- Measurement target: T1, PTHR1 on CHO-K1/Ga15/PTHR1 cells (UniProt Q03431 27-593, limits assumed)
- T1 sequence (looked up): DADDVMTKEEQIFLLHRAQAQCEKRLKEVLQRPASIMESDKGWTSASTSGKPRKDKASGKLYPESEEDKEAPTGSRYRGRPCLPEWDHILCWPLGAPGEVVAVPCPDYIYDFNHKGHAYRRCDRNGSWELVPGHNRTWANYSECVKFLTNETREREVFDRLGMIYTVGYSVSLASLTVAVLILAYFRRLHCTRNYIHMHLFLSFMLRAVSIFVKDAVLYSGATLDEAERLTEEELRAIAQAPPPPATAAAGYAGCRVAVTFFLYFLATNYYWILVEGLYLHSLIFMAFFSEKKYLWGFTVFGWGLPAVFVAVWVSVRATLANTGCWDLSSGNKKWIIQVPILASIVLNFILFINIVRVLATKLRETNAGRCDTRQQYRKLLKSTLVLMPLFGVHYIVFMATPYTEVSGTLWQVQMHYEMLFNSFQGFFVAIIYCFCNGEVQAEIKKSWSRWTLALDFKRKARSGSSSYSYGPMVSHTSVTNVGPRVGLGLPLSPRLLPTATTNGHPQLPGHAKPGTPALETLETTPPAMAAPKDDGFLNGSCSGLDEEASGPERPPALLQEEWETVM
- Procedure text: cell-based or functional assay
Each record here notes measured cAMP accumulation (HTRF): -log10EC50.

GLAALTIGLLRAKLRAEYELREMLLRLLEEIF [R2-24]; -10.4 -log10EC50 (as headed)
AVAEIQLMHQRAKWELQEIGIAITLRLLARYI [R2-43]; -10.5 -log10EC50 (as headed)

QUERY: Name the reported cAMP accumulation (HTRF): -log10EC50 value associated with the binder GVYAIQAMHDLAKIRAEYELREMLLRLLEEIF [R2-10]
RESULT: -4.49 -log10EC50 (as headed)

Reference source for all entries: patent US20220298217A1
